# assay-target: human opioid κ receptor (Homo sapiens)
# Construct: host or cells: CHO cells
# Sequence (P41145 whole entry): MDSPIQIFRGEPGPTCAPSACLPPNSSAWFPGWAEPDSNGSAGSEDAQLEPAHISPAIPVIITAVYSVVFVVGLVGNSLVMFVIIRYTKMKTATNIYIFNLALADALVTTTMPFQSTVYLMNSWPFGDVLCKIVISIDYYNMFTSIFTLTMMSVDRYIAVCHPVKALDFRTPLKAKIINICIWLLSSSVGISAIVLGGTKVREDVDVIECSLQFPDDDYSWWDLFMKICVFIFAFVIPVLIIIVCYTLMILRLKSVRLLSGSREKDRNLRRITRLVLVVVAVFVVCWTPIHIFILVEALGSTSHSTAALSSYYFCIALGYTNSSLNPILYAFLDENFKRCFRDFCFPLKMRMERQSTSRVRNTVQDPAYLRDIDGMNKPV
# test-description: Opioid receptor function test (Lance Ultra cAMP Kit), κ receptor
# Type: cell-based
Where a name gives a salt, the structure may show the parent alone.
measured-endpoint: EC50

Summary line: O=C([C@H]1CCCNC1)N1C[C@H]2C[C@@]34CC[C@@H]1[C@@H]2[C@@]31CCN(CC2CC2)[C@@H]4Cc2ccc(O)cc21 [Example 6, dihydrochloride] , human opioid κ receptor (Homo sapiens), reported EC50 = < 1 nM

----------
# assay-target: human opioid κ receptor (Homo sapiens)
# Construct: host or cells: CHO cells
# test-description: Opioid receptor function test (Lance Ultra cAMP Kit), κ receptor
# Format: cell-based
# settings: CHO cells expressing human κ receptor, cAMP; N.C. = maximum reaction not reached at highest concentration (10 μM), not calculated; read-out: κ receptor EC° C.
measured-endpoint: EC50

// molecule O=C1CC[C@H](C(=O)N2C[C@H]3C[C@@]45CC[C@@H]2[C@@H]3[C@@]42CCN(CC3CC3)[C@@H]5Cc3ccc(O)cc32)O1 , assay human opioid κ receptor (Homo sapiens), EC50 value: < 1 nM
